Where do these numbers come from? They come from paper PMC12432127.

- SYSTEM NAME: UniProtKB P21462
- Sequence (P21462 whole entry): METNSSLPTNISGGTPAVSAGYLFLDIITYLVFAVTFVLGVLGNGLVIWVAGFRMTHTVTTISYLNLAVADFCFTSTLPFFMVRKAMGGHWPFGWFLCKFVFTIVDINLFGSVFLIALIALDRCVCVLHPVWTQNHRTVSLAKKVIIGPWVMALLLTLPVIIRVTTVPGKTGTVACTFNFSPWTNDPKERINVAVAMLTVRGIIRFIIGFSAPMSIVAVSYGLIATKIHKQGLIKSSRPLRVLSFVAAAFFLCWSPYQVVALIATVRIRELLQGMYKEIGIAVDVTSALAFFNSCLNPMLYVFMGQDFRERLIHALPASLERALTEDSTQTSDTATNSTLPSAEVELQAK
- METHOD SUMMARY: High-throughput calcium imaging (FLIPR), FPR1 transfected HEK293T cells
- MEASUREMENT CONDITIONS: FPR1 transfected HEK293T cells, peak calcium response; read-out: EC50 Ca2+ mobilization
- Protocol: Cell transfection was performed approximately 24 h after seeding the cells, when they reached about 70% confluence. […] Automated high-throughput Ca^2+ measurements using a fluorescence imaging plate reader (FLIPR, Molecular Devices) were performed. […] After 2 h of loading with the fluorescent dye, the solution was removed, the plate was washed three times using an ELX50 washer (BioTek), and the intracellular release of calcium was measured using FLIPR. […]
Residues, ends and D or L forms follow the SMILES beside them. Groups on a side chain read outwards from the residue. *: point of attachment. DOTA = O=C(O)CN1CCN(CC(=O)O)CCN(CC(=O)*)CCN(CC(=O)O)CC1; Ahx = NCCCCCC(=O)O; For = O=C*
# EC50 per record follows
# number then unit; no other words

For orientation, consider the following solved cases.
// molecule CC[C@H](C)[C@H](NC(=O)[C@H](CCCCNC(=O)CCCCCNC(=O)CN1CCN(CC(=O)O)CCN(CC(=O)O)CCN(CC(=O)O)CC1)NC(=O)[C@@H](NC(=O)[C@@H]1CCCN1C(=O)[C@@H](NC(=O)[C@H](CCSC)NC=O)C(C)C)[C@@H](C)CC)C(=O)O [^natLu-f-MVPIK(Ahx-DOTA)I, metal not drawn] (For-MVPIK([Ahx-DOTA])I-OH) , assay UniProtKB P21462, EC50 value: 12 nM

Note to self: EC50 of CC[C@H](C)[C@H](NC(=O)[C@H](CCCCNC(=O)CCCCCNC(=O)CN1CCN(CC(=O)O)CCN(CC(=O)O)CCN(CC(=O)O)CC1)NC(=O)[C@@H](NC(=O)[C@@H]1CCCN1C(=O)[C@@H](NC(=O)[C@H](CCSC)NC=O)C(C)C)[C@@H](C)CC)C(=O)O [^natGa-f-MVPIK(Ahx-DOTA)I, metal not drawn] (For-MVPIK([Ahx-DOTA])I-OH) with UniProtKB P21462 was 20 nM

Reported EC50 (UniProtKB P21462) for entry CC[C@H](C)[C@H](NC(=O)[C@H](CCCCN)NC(=O)[C@@H](NC(=O)[C@@H]1CCCN1C(=O)[C@@H](NC(=O)[C@H](CCSC)NC=O)C(C)C)[C@@H](C)CC)C(=O)O [f-MVPIKI] (For-MVPIKI-OH; C-terminus assumed) is 4.3 nM

---
# value of EC50, UniProtKB P21462, item CC[C@H](C)[C@H](NC(=O)[C@H](CCCCNC(=O)CCCCCNC(=O)CN1CCN(CC(=O)O)CCN(CC(=O)O)CCN(CC(=O)O)CC1)NC(=O)[C@@H](NC(=O)[C@@H]1CCCN1C(=O)[C@@H](NC(=O)[C@H](CCSC)NC=O)C(C)C)[C@@H](C)CC)C(=O)O [f-MVPIK(Ahx-DOTA)I] (For-MVPIK([Ahx-DOTA])I-OH) = 23 nM
